- System: Thoracic aorta
- Protocol Notes: Vasorelaxant activity in Wistar rat thoracic aortic ring assessed as inhibition of KCl-induced contraction in presence of glibenclamide
- Type: functional, tissue-based
Known pEC50 of a selection of compounds
The quantity pEC50 is defined as the negative base-10 logarithm of the molar concentration.

INSERT INTO measurements (compound, value_observed) VALUES
  ('CCCOc1ccccc1C(=O)NC(=S)Nc1ccccc1', 4.19);

// next item, pEC50 requested
Query: # return recorded pEC50 for entry CCNC(=S)NC(=O)c1ccccc1OC
Result: 4.55

====

- Species: Rattus norvegicus
- Protocol Notes: Activation of ATP-sensitive potassium channel in Wistar rat pancreatic islets assessed as inhibition of 16.7 mM of glucose-induced insulin secretion by measuring residual insulin secretion at 10 uM after 90 mins relative to control
Binary label based on Activity with cut-off 90%: below gives fulfilled, not below gives not fulfilled.

Check out these entries, answers already filled in.
INSERT INTO assay_data (compound, label) VALUES
  ('CCNC(=O)NC(=O)c1ccccc1OCc1ccccc1', 'not fulfilled'),
  ('CCCOc1ccccc1C(=O)NC(=S)Nc1ccccc1', 'fulfilled'),
  ('CC1=Nc2ccc(Cl)cc2S(=O)(=O)N1 [DIAZOXIDE]', 'fulfilled');

Okay, next one:
Query: Check if Activity falls below 90% for CCNC(=S)NC(=O)c1ccccc1OC .
Result: not fulfilled
